Experimental target: JAK3: Recombinant human kinase domain (Homo sapiens, UniProt P52333)
Construct: JAK3: Recombinant human kinase domain from Millipore (Cat #14-629) or prepared
Sequence (P52333 822-1111 limits assumed): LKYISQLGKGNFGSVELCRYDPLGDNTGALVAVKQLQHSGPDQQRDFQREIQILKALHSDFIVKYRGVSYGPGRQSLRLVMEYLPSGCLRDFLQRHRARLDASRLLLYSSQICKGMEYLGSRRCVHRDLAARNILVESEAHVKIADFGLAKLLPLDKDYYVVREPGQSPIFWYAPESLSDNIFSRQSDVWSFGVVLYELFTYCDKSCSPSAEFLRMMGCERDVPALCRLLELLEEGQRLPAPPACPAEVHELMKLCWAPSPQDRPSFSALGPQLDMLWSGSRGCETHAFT
Procedure details: Determination of IC50 of Janus Kinase (JAK) inhibition, radioactive end-point 33P-ATP assay, JAK3
Run parameters: ATP 1.5 uM, peptide 50 uM, 20 minutes, read-out: JAK3-INHIB-DR/v1~NO ADDITIVE~Enzyme_Conc = 100
pIC50: −log10 of the molar value.
Measurement type: pIC50

// solved cases for pIC50 follow
INSERT INTO measurements (compound, result_number) VALUES
  ('Cn1nc(-c2cnc3[nH]cc(C(=O)NC4CCOC4)c3n2)c2ccc(Cl)cc21 (stereo not drawn) [Example I-107]', 7.94),
  ('COC[C@H](C)NC(=O)c1c[nH]c2ncc(-c3nn(Cc4cccnc4)c4cc(F)ccc34)nc12 [Example I-241]', 9.39),
  ('COC[C@H](C)NC(=O)c1c[nH]c2ncc(-c3nn(CCN(C)C)c4cc(Cl)ccc34)nc12 [Example I-234]', 8.54);

(I) C[C@@H](NC(=O)c1c[nH]c2ncc(-c3nn(C)c4cc(F)ccc34)nc12)c1cccc(OC(F)(F)F)c1 [Example I-254]
(II) Cn1nc(-c2cnc3[nH]cc(C(=O)N[C@H]4CC[C@@H](O)CC4)c3n2)c2ccc(Cl)cc21 [Example I-158]
Request: Input pair: I , II . Output: entry with lower pIC50. Write down the label attached to your selection.
Response: I

(P) CC(C)(C)NC(=O)c1c[nH]c2ncc(-c3cccc4[nH]ncc34)nc12 [Example I-399]
(Q) CC(C)NC(=O)c1c[nH]c2ncc(-c3nn(C)c4cc(F)cc(F)c34)nc12 [Example I-101]
(R) CC(CCCC(C)(C)O)NC(=O)c1c[nH]c2ncc(-c3nn(C)c4cc(Cl)ccc34)nc12 (stereo not drawn) [Example I-163]
(S) C[C@@H](NC(=O)c1c[nH]c2ncc(-c3nn(C)c4cc(Cl)ccc34)nc12)C(=O)N1CC[C@@H](F)C1 [Example I-119]
(T) C[C@@H](O)[C@@H](NC(=O)c1c[nH]c2ncc(-c3nn(C)c4cc(F)ccc34)nc12)C(=O)N1CC(F)C1 [Example I-198]
Request: Rank the items in ascending order with respect to pIC50. Labels, requested order.
Response: R, P, Q, S, T
(R: 7.09, P: 7.74, Q: 7.97, S: 8.44, T: 8.79)

(I) COC[C@H](C)NC(=O)c1c[nH]c2ncc(-c3ncn4cc(F)cc(F)c34)nc12 [Example I-40]
(II) C[C@H](Cn1ccnc1)NC(=O)c1c[nH]c2ncc(-c3nn(C)c4cc(Cl)ccc34)nc12 [Example I-134]
(III) Cn1nc(-c2cnc3[nH]cc(C(=O)N[C@H]4CCCOC4)c3n2)c2ccc(Cl)cc21 [Example I-138]
Request: Order the records by pIC50, with each subsequent value no larger than the one before. Please list the labels in the order you were asked to rank them.
Response: I, III, II

----------
Experimental target: JAK3: Recombinant human kinase domain (Homo sapiens, UniProt P52333)
Construct: JAK3: Recombinant human kinase domain from Millipore (Cat #14-629) or prepared
Procedure details: Determination of IC50 of Janus Kinase (JAK) inhibition, radioactive end-point 33P-ATP assay, JAK3
Run parameters: ATP 1.5 uM, peptide 50 uM, 20 minutes, read-out: JAK3-INHIB-DR/v1~NO ADDITIVE~Enzyme_Conc = 100
Measurement type: IC50 (nM)

(I) C[C@@H](NC(=O)c1c[nH]c2ncc(-c3nn(C)c4cc(F)ccc34)nc12)[C@H]1CCCO1 [Example I-64]
(II) Cc1ccc2c(-c3cnc4[nH]cc(C(=O)N[C@H](C)C(=O)N5CC(C#N)C5)c4n3)nn(C)c2n1 [Example I-89]
(III) C[C@H](CNC(=O)c1c[nH]c2ncc(-c3nn(C)c4cc(F)ccc34)nc12)C(N)=O [Example I-137]
(IV) Cn1nc(-c2cnc3[nH]cc(C(=O)NC4CCC(NS(C)(=O)=O)C4)c3n2)c2ccc(Cl)cc21 (stereo not shown) [Example I-38]
Request: Sort low-to-high on IC50, please. Response format: the labels, sorted as the prompt asks.
Response: II, IV, I, III

----------
Experimental target: recombinant human SYK360-635 (Homo sapiens, UniProt P43405)
Construct: made in house
Procedure details: Determination of IC50 of Spleen Tyrosine Kinase (SYK) inhibition, 33P ATP filtration assay
Format: biochemical
Run parameters: SYK aa 360-635 0.5 nM; ATP 20 μM, peptide 5 μM, 0.1% BSA; read-out: SYK_ENZYME_FILTRATION/v1, BSA
Measurement type: IC50 (nM)

Reference set (4 entries):
INSERT INTO assay_data (compound, unit_tag, result_number) VALUES
  ('C[C@H](NC(=O)c1c[nH]c2ncc(-c3nn(C)c4cc(F)ccc34)nc12)C(C)(C)C', 'nM', 11),
  ('C[C@H](NC(=O)c1c[nH]c2ncc(-c3nn(C)c4cc(Cl)ccc34)nc12)C(C)(C)C#N', 'nM', 29.1),
  ('CC(=O)N(C)CCCn1nc(-c2cnc3[nH]cc(C(=O)NC(C)(C)C)c3n2)c2cc(OC(F)F)ccc21', 'nM', 5.55),
  ('Cn1nc(-c2cnc3[nH]cc(C(=O)NC4CCCOC4)c3n2)c2ccc(Cl)cc21 (stereo not shown)', 'nM', 21.7);

(1) COC[C@H](C)NC(=O)c1c[nH]c2ncc(-c3nn(C)c4cc(Cl)ccc34)nc12
(2) Cn1nc(-c2cnc3[nH]cc(C(=O)N[C@@H]4CCC[C@H](N)C4)c3n2)c2ccc(Cl)cc21 (relative stereo)
Request: Lab log: flag the item ( 1 or 2 ) with the smaller IC50 figure. Please reply using the label of the selected record.
Response: 1
(1: 17 nM, 2: 40 nM)

----------
Experimental target: recombinant human SYK360-635 (Homo sapiens)
Construct: made in house
Procedure details: Determination of IC50 of Spleen Tyrosine Kinase (SYK) inhibition, 33P ATP filtration assay
Type: biochemical
Run parameters: SYK aa 360-635 0.5 nM; ATP 20 μM, peptide 5 μM, 0.1% BSA; read-out: SYK_ENZYME_FILTRATION/v1, BSA
pIC50: −log10 of the molar value.
Measurement type: pIC50

INSERT INTO assay_data (compound, experimental_target, result_number) VALUES
  ('Cn1nc(-c2cnc3[nH]cc(C(=O)NC4(CO)CCOCC4)c3n2)c2cc(OC(F)F)ccc21 [Example I-286]', 'recombinant human SYK360-635 (Homo sapiens)', 7.08);

(a) COC[C@@H](C)NC(=O)c1c[nH]c2ncc(-c3nn(C)c4cc(Cl)ccc34)nc12 [Example I-159]
(b) Cn1nc(-c2cnc3[nH]cc(C(=O)N[C@H]4C[C@@H](N)C4)c3n2)c2ccc(F)cc21 [Example I-271]
(c) C[C@@H](NC(=O)c1c[nH]c2ncc(-c3nn(C)c4cc(F)ccc34)nc12)c1cccc(OC(F)(F)F)c1 [Example I-254]
Request: Sort these compounds on pIC50 so the largest reading comes first. The response must list the labels following the requested ordering.
Response: b, a, c
(b: 7.52, a: 7.18, c: 5.49)

----------
Experimental target: recombinant human SYK360-635 (Homo sapiens)
Construct: made in house
Procedure details: Determination of IC50 of Spleen Tyrosine Kinase (SYK) inhibition, 33P ATP filtration assay
Type: biochemical
Run parameters: SYK aa 360-635 0.5 nM; ATP 20 μM, peptide 5 μM, 0.1% BSA; read-out: SYK_ENZYME_FILTRATION/v1, BSA
pIC50: −log10 of the molar value.
Measurement type: pIC50

INSERT INTO results (compound, measurement_type, result_number) VALUES
  ('COc1nn(-c2cnc3[nH]cc(C(=O)NC(C)(C)CO)c3n2)c2ccccc12', 'pIC50', 8.05),
  ('CC(C)NC(=O)c1c[nH]c2ncc(-c3nn(CCN(C)C)c4cc(Cl)cc(F)c34)nc12', 'pIC50', 6.73),
  ('COc1ccc2c(c1)c(-c1cnc3[nH]cc(C(=O)N[C@@H]4CCCC[C@@H]4N)c3n1)nn2C', 'pIC50', 6.00);

(P) C[C@@H](COC(F)F)NC(=O)c1c[nH]c2ncc(-c3nn(C)c4cc(F)ccc34)nc12
(Q) Cn1nc(-c2cnc3[nH]cc(C(=O)NC4(CN)CC4)c3n2)c2ccc(F)cc21
Request: Between the two listed entries P and Q , which has its pIC50 at the higher number? When you have decided, please share the label of that item.
Response: P

(A) CC(C)(C)NC(=O)c1c[nH]c2ncc(-n3ncc4cc(F)ccc43)nc12
(B) Cn1nc(-c2cnc3[nH]cc(C(=O)NC(CO)C4CCCO4)c3n2)c2ccc(F)cc21 (centres unmarked)
Request: Please tell me which of the two, A or B , has the higher reported pIC50 value. Give the label under which the chosen entry appears.
Response: A

// provenance: patent US8658646B2
